Data provenance is patent US9139568B2.

target: P70S6K (Homo sapiens (Human), UniProt P23443, T412E); test: P70S6K Enzyme Assay; conditions: P70S6K T412E mutant, 24 μM ATP, mobility shift (Caliper)
Sequence (P23443 1-421 T412E): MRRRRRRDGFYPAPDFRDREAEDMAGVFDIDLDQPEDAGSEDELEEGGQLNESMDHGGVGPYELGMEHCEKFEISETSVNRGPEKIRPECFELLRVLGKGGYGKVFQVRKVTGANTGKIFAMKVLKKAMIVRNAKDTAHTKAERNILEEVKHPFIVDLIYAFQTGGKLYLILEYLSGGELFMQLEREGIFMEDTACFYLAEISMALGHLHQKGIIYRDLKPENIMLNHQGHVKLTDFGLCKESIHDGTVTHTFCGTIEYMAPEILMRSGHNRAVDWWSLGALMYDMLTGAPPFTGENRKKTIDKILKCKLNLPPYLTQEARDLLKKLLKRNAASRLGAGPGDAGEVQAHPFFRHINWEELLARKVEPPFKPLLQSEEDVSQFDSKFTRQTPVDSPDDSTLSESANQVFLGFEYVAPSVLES
quantity: IC50 (nM)

The following compounds have reported results that may help.
• NC(=O)c1ccc(N2CCC(CCc3ccccc3)C2)c2cncnc12 (racemic) = 240
• NC(=O)c1ccc(NC2CNC[C@@H]2c2ccc3cccnc3c2)c2cccnc12 (mixture of isomers) = 190
• NC(=O)c1ccc(NC2CNC[C@@H]2c2ccc(OC(F)(F)F)cc2)c2cncnc12 (mixture of isomers) = 23

(1) NC(=O)c1ccc(N2CCC(N)(C(=O)Nc3cccc(F)c3)C2)c2cncnc12 (racemic)
(2) Cc1cccc(N2CCC(Nc3ccc(C(N)=O)c4ncncc34)CC2)c1
## Task Lab note: record which item had the higher IC50, 1 or 2 . // output: label of the selected item
## Result 2
(2: 22000 nM, 1: 2000 nM)

---

biological target: P70S6K (Homo sapiens (Human), UniProt P23443, T412E); experiment: P70S6K Enzyme Assay; settings: P70S6K T412E mutant, 24 μM ATP, mobility shift (Caliper)
pIC50: −log10 of the molar value.
quantity: pIC50

(I) NC(=O)c1ccc(NCc2ccccc2)c2cccnc12 [Example 42, 5-(Benzylamino)quinoline-8-carboxamide]
(II) NC(=O)c1ccc(NCCc2ccccc2)c2cncnc12
(III) NC(=O)c1ccc(N[C@@H]2CNC[C@@H]2c2cccc(OC(F)(F)F)c2)c2cccnc12 (racemic)
## Task Arrange items by their pIC50 values in increasing order. # respond with the labels, arranged in the requested order
## Result I, II, III

---

target: P70S6K (Homo sapiens (Human), UniProt P23443, T412E); assay: P70S6K Enzyme Assay; settings: P70S6K T412E mutant, 24 μM ATP, mobility shift (Caliper)
quantity: IC50 (nM)

// solved cases for IC50 follow
* NC(=O)c1ccc(NCc2cccc(Cl)c2)c2cccnc12 | 140
* NC(=O)c1ccc(N2CCN(c3cccc(F)c3)CC2)c2cncnc12 | 770
* NC(=O)c1ccc(N2CCC(c3ccccc3)C(N)C2)c2cncnc12 (racemic) | 120

(1) NC(=O)c1ccc(N2CCC(N)(C(=O)Nc3ccccc3)C2)c2cncnc12 (racemic)
(2) NC(=O)c1ccc(NC2CNCCC2c2ccc(Cl)c(F)c2)c2cncnc12 (stereo not drawn)
(3) NC(=O)c1ccc(NCCc2cccc(F)c2)c2cncnc12
(4) NC(=O)c1ccc(N2CCN(c3ccc(C(F)(F)F)cc3)CC2)c2cncnc12
## Task Hey, quick one: sort these by IC50, largest value first please. Thanks in advance for listing the labels in the requested order.
## Result 4, 1, 3, 2
(4: 24000 nM, 1: 2300 nM, 3: 120 nM, 2: 8.1 nM)

(P) NC(=O)c1ccc(NC2CCNCC2c2ccc(F)cc2)c2cncnc12 (stereo not drawn)
(Q) NC(=O)c1ccc(N2CCN(c3ccc(F)c(F)c3)CC2)c2cncnc12
(R) NC(=O)c1ccc(N2CCC(NC(=O)c3cccc(C(F)(F)F)c3)C2)c2cncnc12 (racemic)
## Task Hi! Can you put these in order of IC50, lowest number first? Rank the items, then write their labels in that order.
## Result P, Q, R
(P: 550 nM, Q: 1000 nM, R: 2200 nM)
